B1: TPR t1 (parent)
chain: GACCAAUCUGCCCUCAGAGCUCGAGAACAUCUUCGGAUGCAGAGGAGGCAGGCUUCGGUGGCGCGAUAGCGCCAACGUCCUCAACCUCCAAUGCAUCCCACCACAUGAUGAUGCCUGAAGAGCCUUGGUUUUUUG

Variants of: B1
Experiment: polymerase ribozyme fitness, log enrichment relative to wild type (log ratio); higher = more active; in vitro selection for triplet polymerase activity
quantity: polymerase ribozyme fitness (log ratio)

[
  {
    "mutations": "C3G A18C C22A A26G G60U A95U G120A",
    "quantity": "polymerase ribozyme fitness (log ratio)",
    "test-value": -4.84
  },
  {
    "mutations": "C15G A46G G71A C88G",
    "quantity": "polymerase ribozyme fitness (log ratio)",
    "test-value": -5.35
  },
  {
    "mutations": "C12U A111U",
    "quantity": "polymerase ribozyme fitness (log ratio)",
    "test-value": -2.01
  },
  {
    "mutations": "C70G C98U",
    "quantity": "polymerase ribozyme fitness (log ratio)",
    "test-value": -2.99
  },
  {
    "mutations": "C11A C73A U81C U125A",
    "quantity": "polymerase ribozyme fitness (log ratio)",
    "test-value": -3.38
  },
  {
    "mutations": "G44U G52C C82G G113A C124U",
    "quantity": "polymerase ribozyme fitness (log ratio)",
    "test-value": -3.3
  },
  {
    "mutations": "A46U U106A C124G U129G",
    "quantity": "polymerase ribozyme fitness (log ratio)",
    "test-value": -0.0518
  },
  {
    "mutations": "U92G G122U C124U U126C",
    "quantity": "polymerase ribozyme fitness (log ratio)",
    "test-value": -5.41
  },
  {
    "mutations": "C11U G48A U59A G69U C88G G135U",
    "quantity": "polymerase ribozyme fitness (log ratio)",
    "test-value": -3.32
  },
  {
    "mutations": "G69U U133A",
    "quantity": "polymerase ribozyme fitness (log ratio)",
    "test-value": -0.00372
  },
  {
    "mutations": "C13A C53A G120U U132C",
    "quantity": "polymerase ribozyme fitness (log ratio)",
    "test-value": -0.539
  },
  {
    "mutations": "U7C G10C A83C C115U",
    "quantity": "polymerase ribozyme fitness (log ratio)",
    "test-value": -1.32
  },
  {
    "mutations": "U59A C102U A103C",
    "quantity": "polymerase ribozyme fitness (log ratio)",
    "test-value": -5.53
  },
  {
    "mutations": "A5G C11A G58U",
    "quantity": "polymerase ribozyme fitness (log ratio)",
    "test-value": -1.23
  },
  {
    "mutations": "U9G A50U A74C G113C",
    "quantity": "polymerase ribozyme fitness (log ratio)",
    "test-value": -3.6
  },
  {
    "mutations": "A103U G113A",
    "quantity": "polymerase ribozyme fitness (log ratio)",
    "test-value": -3.81
  },
  {
    "mutations": "C20U G44U",
    "quantity": "polymerase ribozyme fitness (log ratio)",
    "test-value": -2.46
  },
  {
    "mutations": "U33A G51A C72U U112A",
    "quantity": "polymerase ribozyme fitness (log ratio)",
    "test-value": -6.67
  },
  {
    "mutations": "C3U A27G G135U",
    "quantity": "polymerase ribozyme fitness (log ratio)",
    "test-value": -5.83
  },
  {
    "mutations": "A24G C72U C88A G93U",
    "quantity": "polymerase ribozyme fitness (log ratio)",
    "test-value": -5.29
  },
  {
    "mutations": "C99A U112G C114U",
    "quantity": "polymerase ribozyme fitness (log ratio)",
    "test-value": -6.6
  },
  {
    "mutations": "A27G C49G",
    "quantity": "polymerase ribozyme fitness (log ratio)",
    "test-value": -2.37
  },
  {
    "mutations": "C89G U126A",
    "quantity": "polymerase ribozyme fitness (log ratio)",
    "test-value": -2.85
  },
  {
    "mutations": "C3G A37U C62A A95U G120C",
    "quantity": "polymerase ribozyme fitness (log ratio)",
    "test-value": -3.27
  },
  {
    "mutations": "C64A C73G",
    "quantity": "polymerase ribozyme fitness (log ratio)",
    "test-value": -6.34
  },
  {
    "mutations": "U9C G60U C99A",
    "quantity": "polymerase ribozyme fitness (log ratio)",
    "test-value": -6.14
  },
  {
    "mutations": "C56G G110U G135C",
    "quantity": "polymerase ribozyme fitness (log ratio)",
    "test-value": -1.62
  },
  {
    "mutations": "C40U A46C C64U",
    "quantity": "polymerase ribozyme fitness (log ratio)",
    "test-value": -2.21
  },
  {
    "mutations": "G36C C56G C72U",
    "quantity": "polymerase ribozyme fitness (log ratio)",
    "test-value": -2.79
  },
  {
    "mutations": "C62U U87C",
    "quantity": "polymerase ribozyme fitness (log ratio)",
    "test-value": -0.408
  },
  {
    "mutations": "G39U G63U",
    "quantity": "polymerase ribozyme fitness (log ratio)",
    "test-value": -1.63
  },
  {
    "mutations": "A6C C62G",
    "quantity": "polymerase ribozyme fitness (log ratio)",
    "test-value": -2.28
  },
  {
    "mutations": "G45C A66U C79G C82U",
    "quantity": "polymerase ribozyme fitness (log ratio)",
    "test-value": -3.83
  },
  {
    "mutations": "U9G G48U C88A",
    "quantity": "polymerase ribozyme fitness (log ratio)",
    "test-value": -1.04
  },
  {
    "mutations": "C73G A84U",
    "quantity": "polymerase ribozyme fitness (log ratio)",
    "test-value": -1.52
  },
  {
    "mutations": "A41C G42U C104U C114A",
    "quantity": "polymerase ribozyme fitness (log ratio)",
    "test-value": -3.04
  },
  {
    "mutations": "C15A U109A",
    "quantity": "polymerase ribozyme fitness (log ratio)",
    "test-value": -5.42
  },
  {
    "mutations": "G63U C82A C104U A108C",
    "quantity": "polymerase ribozyme fitness (log ratio)",
    "test-value": -6.05
  },
  {
    "mutations": "A27U C88A",
    "quantity": "polymerase ribozyme fitness (log ratio)",
    "test-value": -4.4
  },
  {
    "mutations": "A43G C64U C82G C114U A119G U131A",
    "quantity": "polymerase ribozyme fitness (log ratio)",
    "test-value": -1.99
  },
  {
    "mutations": "G19A C73U",
    "quantity": "polymerase ribozyme fitness (log ratio)",
    "test-value": -2.61
  },
  {
    "mutations": "C3U G47U A50C",
    "quantity": "polymerase ribozyme fitness (log ratio)",
    "test-value": -2.21
  },
  {
    "mutations": "C12U C34A C53U C72U",
    "quantity": "polymerase ribozyme fitness (log ratio)",
    "test-value": -2.62
  },
  {
    "mutations": "A24C U32C C73A U96G A111U",
    "quantity": "polymerase ribozyme fitness (log ratio)",
    "test-value": -7.08
  },
  {
    "mutations": "A6G U21C G61C C114A",
    "quantity": "polymerase ribozyme fitness (log ratio)",
    "test-value": -3.62
  },
  {
    "mutations": "C70A G128U",
    "quantity": "polymerase ribozyme fitness (log ratio)",
    "test-value": -3.9
  },
  {
    "mutations": "G17U C62G A83U C123G",
    "quantity": "polymerase ribozyme fitness (log ratio)",
    "test-value": -5.79
  },
  {
    "mutations": "G39A G61C C72U G117A",
    "quantity": "polymerase ribozyme fitness (log ratio)",
    "test-value": -1.82
  },
  {
    "mutations": "U78G C102G",
    "quantity": "polymerase ribozyme fitness (log ratio)",
    "test-value": -4.94
  },
  {
    "mutations": "C12A U14A U87A C88U",
    "quantity": "polymerase ribozyme fitness (log ratio)",
    "test-value": -4.28
  },
  {
    "mutations": "G47A U96G G120U",
    "quantity": "polymerase ribozyme fitness (log ratio)",
    "test-value": -1.94
  },
  {
    "mutations": "G45U G51U A118G G120U",
    "quantity": "polymerase ribozyme fitness (log ratio)",
    "test-value": -7.09
  },
  {
    "mutations": "C15U G44C G93A",
    "quantity": "polymerase ribozyme fitness (log ratio)",
    "test-value": -2.63
  },
  {
    "mutations": "C4U C34A A90C C114G G135A",
    "quantity": "polymerase ribozyme fitness (log ratio)",
    "test-value": -5.15
  },
  {
    "mutations": "C4U G110A",
    "quantity": "polymerase ribozyme fitness (log ratio)",
    "test-value": -1.37
  },
  {
    "mutations": "C82A C89G C101A C102A U112C C123A",
    "quantity": "polymerase ribozyme fitness (log ratio)",
    "test-value": -6.34
  },
  {
    "mutations": "G65A C88U",
    "quantity": "polymerase ribozyme fitness (log ratio)",
    "test-value": -5.19
  },
  {
    "mutations": "A50U C79U",
    "quantity": "polymerase ribozyme fitness (log ratio)",
    "test-value": -1.76
  },
  {
    "mutations": "G39A G61U",
    "quantity": "polymerase ribozyme fitness (log ratio)",
    "test-value": -0.116
  },
  {
    "mutations": "A5G C114G",
    "quantity": "polymerase ribozyme fitness (log ratio)",
    "test-value": -2.13
  },
  {
    "mutations": "C98U G117C",
    "quantity": "polymerase ribozyme fitness (log ratio)",
    "test-value": -5.29
  },
  {
    "mutations": "G60U U78A U106A",
    "quantity": "polymerase ribozyme fitness (log ratio)",
    "test-value": 0.283
  },
  {
    "mutations": "C31U U81A C88G A95U U112A",
    "quantity": "polymerase ribozyme fitness (log ratio)",
    "test-value": -6.66
  },
  {
    "mutations": "G61C G93U",
    "quantity": "polymerase ribozyme fitness (log ratio)",
    "test-value": -2.81
  },
  {
    "mutations": "C99A C102U",
    "quantity": "polymerase ribozyme fitness (log ratio)",
    "test-value": -4.82
  },
  {
    "mutations": "C40U G45C C49U G63U A83U",
    "quantity": "polymerase ribozyme fitness (log ratio)",
    "test-value": -5.92
  },
  {
    "mutations": "A37U A90C U96A",
    "quantity": "polymerase ribozyme fitness (log ratio)",
    "test-value": -0.653
  },
  {
    "mutations": "A5G C11G C28U U59G A118G G127U G135U",
    "quantity": "polymerase ribozyme fitness (log ratio)",
    "test-value": -2.91
  },
  {
    "mutations": "C76G A90C",
    "quantity": "polymerase ribozyme fitness (log ratio)",
    "test-value": -0.998
  },
  {
    "mutations": "A6G C56A G69U C104U",
    "quantity": "polymerase ribozyme fitness (log ratio)",
    "test-value": -0.478
  },
  {
    "mutations": "C13G G17C",
    "quantity": "polymerase ribozyme fitness (log ratio)",
    "test-value": -4.94
  },
  {
    "mutations": "C8U C22G U33A A50C G57U G120U",
    "quantity": "polymerase ribozyme fitness (log ratio)",
    "test-value": -4.54
  },
  {
    "mutations": "U9C C20A G69C C101A",
    "quantity": "polymerase ribozyme fitness (log ratio)",
    "test-value": -6.63
  },
  {
    "mutations": "C82U U109G U130G",
    "quantity": "polymerase ribozyme fitness (log ratio)",
    "test-value": -6.23
  },
  {
    "mutations": "G10C G45U G47U C73A G117A A119U",
    "quantity": "polymerase ribozyme fitness (log ratio)",
    "test-value": -5.46
  },
  {
    "mutations": "C114U C123U",
    "quantity": "polymerase ribozyme fitness (log ratio)",
    "test-value": -1.92
  },
  {
    "mutations": "C73U C124G",
    "quantity": "polymerase ribozyme fitness (log ratio)",
    "test-value": 0.939
  },
  {
    "mutations": "G42A G77A",
    "quantity": "polymerase ribozyme fitness (log ratio)",
    "test-value": -2.61
  },
  {
    "mutations": "U59A C62A A100C U106A C124G",
    "quantity": "polymerase ribozyme fitness (log ratio)",
    "test-value": -0.96
  },
  {
    "mutations": "C8A U21G A50G C88A C124A",
    "quantity": "polymerase ribozyme fitness (log ratio)",
    "test-value": -0.0763
  },
  {
    "mutations": "C72G U78C",
    "quantity": "polymerase ribozyme fitness (log ratio)",
    "test-value": -0.909
  },
  {
    "mutations": "C94U G120C",
    "quantity": "polymerase ribozyme fitness (log ratio)",
    "test-value": 0.688
  },
  {
    "mutations": "U30C C70U",
    "quantity": "polymerase ribozyme fitness (log ratio)",
    "test-value": -2.92
  },
  {
    "mutations": "C8A U59C A105G C123A",
    "quantity": "polymerase ribozyme fitness (log ratio)",
    "test-value": -2.08
  },
  {
    "mutations": "C13U G45C C70U C124A",
    "quantity": "polymerase ribozyme fitness (log ratio)",
    "test-value": -0.034
  },
  {
    "mutations": "C89U A90G",
    "quantity": "polymerase ribozyme fitness (log ratio)",
    "test-value": 0.141
  }
]
